Reference source for all entries: ChEMBL document CHEMBL1133214

system: Candida albicans; assay: Percent inhibition rate of 100 ug/mL against chitin synthase isolated from Candida albicans.
Rate values, listed per item
RESULT TYPE: Rate (%)

{"columns": ["COMPOUND", "MEASUREMENT TARGET", "RESULT"],
 "data": [
  ["N[C@@H](CSc1ccccn1)C(=O)N[C@H](C(=O)O)[C@H]1O[C@@H](n2ccc(=O)[nH]c2=O)[C@H](O)C1O (single isomer, unassigned)", "Candida albicans", 48],
  ["CC(C)(SCc1ccccc1)[C@H](N)C(=O)N[C@H](C(=O)O)[C@H]1O[C@@H](n2ccc(=O)[nH]c2=O)[C@H](O)C1O (single isomer, unassigned)", "Candida albicans", 97],
  ["CC(=O)NCSC[C@H](N)C(=O)N[C@H](C(=O)O)[C@H]1O[C@@H](n2ccc(=O)[nH]c2=O)[C@H](O)C1O (single isomer, unassigned)", "Candida albicans", 65],
  ["N[C@@H](CSc1ccc(O)cc1)C(=O)N[C@H](C(=O)O)[C@H]1O[C@@H](n2ccc(=O)[nH]c2=O)[C@H](O)C1O (single isomer, unassigned)", "Candida albicans", 44],
  ["CC(C)(SCc1ccccc1O)[C@H](N)C(=O)N[C@H](C(=O)O)[C@H]1O[C@@H](n2ccc(=O)[nH]c2=O)[C@H](O)C1O (single isomer, unassigned)", "Candida albicans", 88],
  ["N[C@@H](CSc1ccc(O)cn1)C(=O)N[C@H](C(=O)O)[C@H]1O[C@@H](n2ccc(=O)[nH]c2=O)[C@H](O)C1O (single isomer, unassigned)", "Candida albicans", 73]
]}
